Assignment: determine reported IC50 SARS-CoV2 PsV (IgG) for the given binders.
target: SARS-CoV-2 Spike on wild-type pseudotyped virus (PsV) (SARS-CoV-2, UniProt P0DTC2 14-1273); experiment: cell-based or functional assay

Worked cases, IC50 SARS-CoV2 PsV (IgG) given:
mAb 324 (antibody, V domains shown, also called IgG 324; Antibody 324) VH: QVQLVQSGAEVKKPGASVKVSCKASGGTFNNYGISWVRQAPGQGLEWMGWMNPNSGNTGYAQKFQGRVTMTRDTSTSTVYMELSSLRSEDTAVYYCARVGDYGDYIVSPFDLWGRGTLVTVSS VL: DIQMTQSPSSLSASVGDRVTITCRASQSITTYLNWYQQKPGKAPKLLIYDASNLETGVPSRFSGSGSGTDFTLTISSLQPEDFATYYCQQSYSTPPTFGQGTKVEIKR; 0.78 mg/L
mAb 192 (antibody, V domains shown) VH: QVQLVQSGAEVKKPGSSVKVSCKASGGTFSSYAISWVRQAPGQGLEWMGWINPNSGGANYAQKFQGRVTITADESTSTAYMELSSLRSEDTAVYYCSTYYYDSSGYSTDYWGQGTLVTVSS VL: DIVMTQSPLSLPVTPGEPASISCRSSQSLLHSNGYNYLDWYLQKPGQSPQLLIYAASSLQSGVPDRFSGSGSGTDFTLKISRVEAEDVGVYYCMQALQTPYTFGQGTKLEIKR; > 50 mg/L

For the next question, use this binder.
Suppose we examine the binder mAb 160 (antibody, V domains shown, also called IgG 160; Antibody 160) VH: QVQLVQSGAEVKKPGASVKVSCKASGYTFTGHDMHWVRQAPGQGLEWMGIINPSGGSTSYAQKFQGRVTMTRDTSTSTVYMELSSLRSEDTAVYYCARANSLRYYYGMDVWGQGTMVTVSS VL: DIQMTQSPSSLSASVGDRVTITCRASQSVSSWLAWYQQKPGKAPKLLIYAASSLQSGVPSRFSGSGSGTDFTLTISSLQPEDFATYYCQQGYTTPYTFGQGTKLEIKR ; what IC50 SARS-CoV2 PsV (IgG) value has been reported?
> 50 mg/L
